- Tested on: XF498
- protocol-details: NCI tumour cell line growth inhibition, 48 h
Calls of active or inactive are those of the source. Cut-off read from the data, not from the text of the source: active = GI50 up to about 1.1 µM and inactive = higher.
Outcome codes: active, inactive

> print(dat)
                                    compound     class
 1           COc1ccc(OC)c(/C(C)=N/NC(N)=S)c1  inactive
 2  N#CC(N)(C(=O)CCC(=O)Nc1cccc(Cl)c1)c1ccc(Cl)cc1 (configuration not stated)  inactive
 3  CC(=O)C1(O)CC2(c3ccccc3)C(=O)C1(c1ccccc1)C(c1ccccc1)=C2c1ccccc1 (configuration not stated)  inactive
 4  Clc1ccc(C2=NN(c3ccccc3)C3c4cc(Br)ccc4OCC23)cc1 (configuration not stated)  inactive
 5  N=C1CSC2=NC3=C(CCC/C3=C\c3ccccc3)C(c3ccccc3)N12 (configuration not stated)  inactive
 6  COc1ccc(/N=C\c2ccc(N(CCC#N)CCC#N)cc2)cc1  inactive
 7  CN(C)CCNC(=O)c1cccc2cc([N+](=O)[O-])ccc12    active
 8             O=c1c2cccc3cccc(c4n1CCN=4)c32  inactive
 9  N=C(N)c1csc([C@@H]2O[C@H](CO)[C@@H](O)[C@H]2O)n1  inactive
10  CC1=NN(C(=O)c2ccccc2)C(=O)C1/N=N/c1ccccc1C(=O)O (configuration not stated)  inactive
11  CN(C)c1ccccc1CC(c1c[nH]c2ccccc12)c1c[nH]c2ccccc12  inactive
12  COc1ccc(S(=O)(=O)NC(C)C(=O)O)cc1 (configuration not stated)  inactive

###

- Tested on: RPMI-8226
- protocol-details: NCI tumour cell line growth inhibition, 48 h
Calls of active or inactive are those of the source. Cut-off read from the data, not from the text of the source: active = GI50 up to about 1.1 µM and inactive = higher.
assay-readout: GI50

> print(dat)
                                   molecule  assay.readout            obs.value
1           N#Cc1cc(-c2nc3ccc(F)cc3s2)ccc1N           GI50  > 100 µM (inactive)
2                CN(/N=C/c1ccccn1)C1=NCCCN1           GI50  > 100 µM (inactive)
3  O=[N+]([O-])c1ccc(C2=NOC(c3ccccc3)N2C23CC4CC(CC(C4)C2)C3)cc1 (stereo not drawn)           GI50   > 10 µM (inactive)

###

- Tested on: UACC-62
- protocol-details: NCI tumour cell line growth inhibition, 48 h
Activity calls are given as the source filed them. Cut-off read from the data, not from the text of the source: active = GI50 up to about 1.1 µM and inactive = higher.
assay-readout: GI50

> print(dat)
                                   compound  assay.readout            obs.value
1  CC1=C(C(=O)Nc2ccccc2)C(c2cccc3ccccc23)C(C(=O)Nc2ccccc2)=C(C)N1           GI50   13.8 µM (inactive)
2  CCc1c(C)c(C#N)c(=S)n(C2OC(COC(C)=O)C(OC(C)=O)C(OC(C)=O)C2OC(C)=O)c1-c1ccccc1 (stereo not given)           GI50   > 10 µM (inactive)
3  O=C1N/C(=N/N=C/C(O)C(O)C(O)C(O)CO)N/C1=C\c1ccco1 (stereo not given)           GI50  > 100 µM (inactive)
4  O=C(C=P(c1ccccc1)(c1ccccc1)c1ccccc1)c1ccc(-c2ccc(F)cc2F)cc1           GI50   1.85 µM (inactive)
5         N/C(=N\Nc1ccc(C(=O)O)cc1)c1cnccn1           GI50  > 100 µM (inactive)
